- Tested on: 134 cancer cell lines
- PROTOCOL_SUMMARY: Cell viability assay (ATPlite, 72 hours), IC50 on cancer cell line panel
- PROTOCOL_CONDITIONS: Homo sapiens, SW982, read-out: IC50 in cell proliferation assay, cell line SW982 (BRAF p.V600E)
pIC50: −log10 of the molar value.
Use T when the recorded pIC50 is no lower than 6; use F when it is lower.

Reference set, count: 4
O=C(c1ccc(F)c(F)c1Nc1ccc(I)cc1F)N1CC(O)([C@@H]2CCCCN2)C1 :: F
FC(F)(F)c1ccc(CNc2ccc(Cc3c[nH]c4ncc(Cl)cc34)cn2)cn1 :: F
COC(=O)N[C@@H](C)CNc1nccc(-c2cn(C(C)C)nc2-c2cc(Cl)cc(NS(C)(=O)=O)c2F)n1 :: T
Cc1nc(NC(=O)N2CCC[C@H]2C(N)=O)sc1-c1ccnc(C(C)(C)C(F)(F)F)c1 :: F

From here, focus on the item given below.
Query: Item "Cn1cnc2c(F)c(Nc3ccc(Br)cc3F)c(C(=O)NOCCO)cc21" with pIC50 of 6 or above?
Response: T
